From: PubChem BioAssay AID463173

# Tested on: Wild type
# Experiment Summary: S. aureus survival, RN4220 and DeltatarO strains – OD600, teichoic acid synthesis inhibitors, primary screen (AID 463173)
# Particulars: S. aureus RN4220 wild type/DeltatarO growth, OD600, 18 h, hits give low values, screened at 18.75 µg/mL (by protocol)
Hit rate of the full screen: of about 52,000 compounds, about 1,700 (3.3%) were called active. Only a selection was taken, and actives are over-represented in it overall.
Consider the following molecules and their measured survival readings.
Number in %, nothing else.

Before answering, review these 6 worked examples.
Molecule: O=C1c2[nH]nc(-c3ccccc3O)c2C(c2ccc(Cl)cc2)N1CCc1ccccc1 (stereo unspecified)
Readout Unit: %
survival: 4
--
Molecule: CCOc1cc(C2c3c(-c4ccccc4O)n[nH]c3C(=O)N2Cc2cccnc2)ccc1O (stereo unspecified)
Readout Unit: %
survival: 89
--
Molecule: CCCOc1ccc(-c2nc(N3CCCCC3)c3ccccc3n2)cc1
Readout Unit: %
survival: 0
--
Molecule: COc1cc(C2c3c(-c4ccccc4O)n[nH]c3C(=O)N2Cc2ccco2)ccc1OCC(C)C (stereo unspecified)
Readout Unit: %
survival: 43
--
Molecule: CC(C)CCNC(=O)CN1C(=O)CCn2nc(-c3cn(C)c4ccccc34)cc21
Readout Unit: %
survival: 87
--
Molecule: c1ccc(-c2nc(N3CCCCC3)c3ccccc3n2)cc1
Readout Unit: %
survival: 130

For Wild type, give survival of the listed molecule: CC1=Nc2ccccc2N=C(C)C1
115

For Wild type, give survival of the listed molecule: Cc1nn(C(=O)c2ccc(Br)cc2)c(C)c1Sc1ccccc1
-4

For Wild type, give survival of the listed molecule: O=C1c2[nH]nc(-c3ccccc3O)c2C(c2ccc(Cl)cc2)N1Cc1ccco1 (stereo unspecified)
-1
